experimental.target: Met kinase (Homo sapiens)
Sequence (P08581 25-1390): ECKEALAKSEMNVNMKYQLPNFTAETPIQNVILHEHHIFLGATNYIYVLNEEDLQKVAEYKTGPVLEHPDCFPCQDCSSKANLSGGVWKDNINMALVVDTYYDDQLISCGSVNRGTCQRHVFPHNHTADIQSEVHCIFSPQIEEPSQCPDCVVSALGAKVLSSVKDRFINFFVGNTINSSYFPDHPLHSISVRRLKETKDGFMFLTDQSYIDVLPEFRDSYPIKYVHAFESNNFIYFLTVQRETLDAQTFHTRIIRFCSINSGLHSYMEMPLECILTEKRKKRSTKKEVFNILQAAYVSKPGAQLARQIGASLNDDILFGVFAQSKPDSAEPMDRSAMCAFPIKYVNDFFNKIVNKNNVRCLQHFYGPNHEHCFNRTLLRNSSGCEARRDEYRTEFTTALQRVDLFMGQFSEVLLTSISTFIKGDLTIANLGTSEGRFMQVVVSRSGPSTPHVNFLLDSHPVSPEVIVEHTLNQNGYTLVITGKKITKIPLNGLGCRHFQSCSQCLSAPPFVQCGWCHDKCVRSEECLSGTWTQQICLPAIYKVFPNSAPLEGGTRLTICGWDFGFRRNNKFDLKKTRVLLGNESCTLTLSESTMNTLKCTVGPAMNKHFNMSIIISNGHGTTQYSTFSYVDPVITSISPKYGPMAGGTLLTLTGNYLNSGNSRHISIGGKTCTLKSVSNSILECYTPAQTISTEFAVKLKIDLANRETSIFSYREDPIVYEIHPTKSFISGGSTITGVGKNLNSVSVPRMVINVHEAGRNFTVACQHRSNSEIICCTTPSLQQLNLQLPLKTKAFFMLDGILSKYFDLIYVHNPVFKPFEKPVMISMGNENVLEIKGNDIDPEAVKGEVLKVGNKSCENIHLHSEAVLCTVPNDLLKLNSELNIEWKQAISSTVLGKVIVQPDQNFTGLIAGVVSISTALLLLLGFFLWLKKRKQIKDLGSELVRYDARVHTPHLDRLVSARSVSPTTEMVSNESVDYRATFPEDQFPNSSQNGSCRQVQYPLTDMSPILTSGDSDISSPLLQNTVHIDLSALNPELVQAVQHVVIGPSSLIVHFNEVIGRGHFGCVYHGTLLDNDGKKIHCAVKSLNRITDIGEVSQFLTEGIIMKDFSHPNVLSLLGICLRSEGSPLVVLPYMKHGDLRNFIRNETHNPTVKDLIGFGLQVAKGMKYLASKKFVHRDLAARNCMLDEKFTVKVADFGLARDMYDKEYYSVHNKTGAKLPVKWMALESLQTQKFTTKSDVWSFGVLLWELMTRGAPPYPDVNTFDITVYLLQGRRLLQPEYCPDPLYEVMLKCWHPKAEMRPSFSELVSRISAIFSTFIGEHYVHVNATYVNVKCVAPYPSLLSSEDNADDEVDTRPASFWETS
experimental.protocol: MET kinase assay (colorimetric determination of c-Met kinase activity, HTScan Met Kinase Assay Kit)
Assay type: biochemical
Parameters: purchased Cell Signalling Technology, Beverly, Mass
setup.conditions: c-Met kinase
Source text: 1. MET Kinase Assay Protocol: Colorimetric Determination of c-Met Kinase Activity The receptor tyrosine kinase c-Met is a heterodimeric transmembrane glycoprotein involved in several cellular processes that aid in tumor progression. […] c-Met Kinase activity shall be determined using an HTScan® Met Kinase Assay Kit (Cell Signalling Technology, Beverly, Mass.) with modifications. […] Data generated can be analyzed further using Graphpad Prism (Graphpad software, San Diego Calif.) for determination of IC50.
parameter: IC50

Worked set:
For the molecule shown here, O=C(O)c1ccc(-c2ccc3nnn(Cc4ccc5ncccc5c4)c3n2)cc1 , give the reported IC50.
50 to 100 nM

For the molecule shown here, OCc1ccc(-c2ccc3nnn(Cc4ccc5ncccc5c4)c3n2)cc1F , give the reported IC50.
50 to 100 nM

More entries:
For the molecule shown here, NC(=O)c1c(F)cc(-c2ccc3nnn(Cc4ccc5ncccc5c4)c3n2)cc1F , give the reported IC50.
≤ 50 nM

For the molecule shown here, O=C(Nc1nc[nH]n1)c1ccc(-c2ccc3nnn(Cc4ccc5ncccc5c4)c3n2)cc1F , give the reported IC50.
≤ 50 nM

For the molecule shown here, CNC(=O)c1ccc(-c2ccc3nnn(Cc4ccc5ncccc5c4)c3n2)cc1F , give the reported IC50.
100 to 250 nM

For the molecule shown here, CNC(=O)c1ccc(-c2ccc3nnn(Cc4ccc5ncccc5c4)c3n2)cc1 , give the reported IC50.
50 to 100 nM

For the molecule shown here, C[C@@H](c1ccc2ncccc2c1)n1nnc2ccc(-c3ccc(C(N)=O)c(Cl)c3)nc21 , give the reported IC50.
50 to 100 nM

For the molecule shown here, NC(=O)c1ccc(-c2ccc3nnn(Cc4cc5cccnc5cc4F)c3n2)cc1F , give the reported IC50.
≤ 50 nM

For the molecule shown here, CCNC(=O)c1ccc(-c2ccc3nnn(Cc4ccc5ncccc5c4)c3n2)cc1Cl , give the reported IC50.
≤ 50 nM

For the molecule shown here, OCc1ccc(-c2ccc3nnn(Cc4ccc5ncccc5c4)c3n2)cc1 , give the reported IC50.
50 to 100 nM

For the molecule shown here, COc1cccc(-c2ccc3nnn(Cc4ccc5ncccc5c4)c3n2)c1 , give the reported IC50.
50 to 100 nM

For the molecule shown here, C[C@H](c1ccc2ncccc2c1)n1nnc2ccc(-c3ccc(C(N)=O)c(Cl)c3)nc21 , give the reported IC50.
250 to 1000 nM

###

Tested on: MKN-45 cells
experimental.protocol: Inhibition of MKN-45 proliferation (MTT)
Format: cell-based, human
setup.conditions: Homo sapiens, MKN-45, MKN-45 proliferation, 1 μM
Procedure: Inhibition of MKN-45 Proliferation: Cell proliferation assays were carried out using the high Met expressing human gastric adenocarcinoma cell line, MKN-45, according to the following schedule: Day 1: Cells were plated in 96-well plates in complete growth medium. Day 2: Compounds at desired concentrations were added. Day 5: Cell viability was determined using the 3-[4,5-dimethylthiazol-2-yl]-2,5-diphenyltetrazolium bromide (MTT) dye reduction test.
Property: inhibition at 1 µM; scope: individual compounds

Worked set:
For the compound shown here, Cn1cc(-c2ccc3ncn(Cc4ccc5ncccc5c4)c3n2)cn1 [Ex 148] , give the reported inhibition at 1 µM.
< 25%

For the compound shown here, c1cnc2ccc(Cn3nnc4ccc(-c5ccc(N6CCOCC6)nc5)nc43)cc2c1 [Ex 195] , give the reported inhibition at 1 µM.
50 to 75%

For the compound shown here, O=C(NC1CCC1)c1ccc(-c2ccc3nnn(Cc4ccc5ncccc5c4)c3n2)cc1F [Ex 104] , give the reported inhibition at 1 µM.
75 to 100%

More entries:
For the compound shown here, CC(C)(c1ccc2ncccc2c1)n1nnc2ccc(-c3cnn(CCO)c3)nc21 [Ex 190] , give the reported inhibition at 1 µM.
< 25%

For the compound shown here, CCCNC(=O)c1ccc(-c2ccc3nnn(Cc4ccc5ncccc5c4)c3n2)cc1Cl [Ex 102] , give the reported inhibition at 1 µM.
75 to 100%

For the compound shown here, CC(=O)Nc1cccc(-c2ccc3nnn(Cc4ccc5ncccc5c4)c3n2)c1 [Ex 69] , give the reported inhibition at 1 µM.
< 25%
